Just for reference, the supplement of paper PMC12764529 is where these values come from.

For each of the sequences below, state its folding stability dG unfold.
protocol: folding stability dG unfold from chymotrypsin proteolysis; higher = more stable
Provide the reading as a plain figure in kcal/mol.

Problem: Given SAGGSAGGSAFQIEDLKIEKVEFNPDGMVHNELEITLPGGKELEVSIMIDPKKPGKLMIMIVSAGGSAGGSA [r18_97_TrROS] , state its recorded folding stability dG unfold.
Solution: 1.42

Problem: // folding stability dG unfold lookup, key: SAGGSAGGSASAEEIAAKIEALFPVKVTVVREEPTPLGRPEVVIEVDAVGVPEELLEEVLKSAGGSAGGSAG [r3_40_JUSTAS]
Solution: 0.446

Problem: So what does the record say about folding stability dG unfold for SNKKWRTIELDFWFRTPEQAREWANNLARRLPPDNIDSISVEVEPFPVRKNGEPVGPVYRFKLTIMVRPESA [r9_605_TrROS] ?
Solution: 2.82

Problem: What folding stability dG unfold value was documented for this sequence, SAGMPAGDFEPVKVEYTIKIPILNEGGGAAAPMPIKVKVEVYRMPNGNLFIKFEIEIPGGNKIEFWFPISAG [r5_580_TrROS] ?
Solution: 4.32
